- Test system: KG-1
- test: Cytotoxicity against human KG-1 cells assessed as reduction in cell viability
- Format: functional, cell-based
measured_metric: EC50
Write the quantity with the unit trailing the number.

A selection of reference data follows.
                                   molecule  measured_metric    result
0  Cc1cn([C@@H](C)[C@@]2(F)CCNC2)c2nc(C(N)=O)cc(Cl)c12 (stereo in doubt)             EC50  0.808 µM
1  Cc1cn([C@H](C)[C@@]2(F)CCNC2)c2nc(C(N)=O)cc(Cl)c12 (stereo in doubt)             EC50   7.23 µM
2  Cc1cn([C@H](C)[C@]2(F)CCNC2)c2nc(C(N)=O)cc(Cl)c12 (stereo in doubt)             EC50   9.07 µM

Please report the recorded EC50 for Cc1cn([C@@H](C)[C@H]2CCNC[C@H]2F)c2nc(C(N)=O)cc(Cl)c12 (racemic) . 0.017 µM
